Test system: HepG2 cancer cell line
Test: MTT assay, anticancer activity against HepG2
Type: cell-based
Settings: Homo sapiens, HepG2, 48 h, read-out: Anticancer activity IC50
pIC50: −log10 of the molar value.
# Lookup of reported pIC50 keyed by entry
Quantity Measured: pIC50

>>> print(df.to_string())
                                   compound  quantity_measured  assay_value
0  CC(=O)C/C(=N/NC(=O)c1nc2ccccc2n(C)c1=O)c1ccccc1              pIC50         5.26
1  Cn1c(=O)c(C(=O)N/N=C2\C(=O)Nc3ccccc32)nc2ccccc21              pIC50         5.37
2  Cn1c(=O)c(C(=O)NNC(=O)CC(=O)c2ccccc2)nc2ccccc21              pIC50         5.62

###

pIC50: −log10 of the molar value.
The molecules below have reported pIC50 for UniProt P00533.
Sequence (P00533 25-1210): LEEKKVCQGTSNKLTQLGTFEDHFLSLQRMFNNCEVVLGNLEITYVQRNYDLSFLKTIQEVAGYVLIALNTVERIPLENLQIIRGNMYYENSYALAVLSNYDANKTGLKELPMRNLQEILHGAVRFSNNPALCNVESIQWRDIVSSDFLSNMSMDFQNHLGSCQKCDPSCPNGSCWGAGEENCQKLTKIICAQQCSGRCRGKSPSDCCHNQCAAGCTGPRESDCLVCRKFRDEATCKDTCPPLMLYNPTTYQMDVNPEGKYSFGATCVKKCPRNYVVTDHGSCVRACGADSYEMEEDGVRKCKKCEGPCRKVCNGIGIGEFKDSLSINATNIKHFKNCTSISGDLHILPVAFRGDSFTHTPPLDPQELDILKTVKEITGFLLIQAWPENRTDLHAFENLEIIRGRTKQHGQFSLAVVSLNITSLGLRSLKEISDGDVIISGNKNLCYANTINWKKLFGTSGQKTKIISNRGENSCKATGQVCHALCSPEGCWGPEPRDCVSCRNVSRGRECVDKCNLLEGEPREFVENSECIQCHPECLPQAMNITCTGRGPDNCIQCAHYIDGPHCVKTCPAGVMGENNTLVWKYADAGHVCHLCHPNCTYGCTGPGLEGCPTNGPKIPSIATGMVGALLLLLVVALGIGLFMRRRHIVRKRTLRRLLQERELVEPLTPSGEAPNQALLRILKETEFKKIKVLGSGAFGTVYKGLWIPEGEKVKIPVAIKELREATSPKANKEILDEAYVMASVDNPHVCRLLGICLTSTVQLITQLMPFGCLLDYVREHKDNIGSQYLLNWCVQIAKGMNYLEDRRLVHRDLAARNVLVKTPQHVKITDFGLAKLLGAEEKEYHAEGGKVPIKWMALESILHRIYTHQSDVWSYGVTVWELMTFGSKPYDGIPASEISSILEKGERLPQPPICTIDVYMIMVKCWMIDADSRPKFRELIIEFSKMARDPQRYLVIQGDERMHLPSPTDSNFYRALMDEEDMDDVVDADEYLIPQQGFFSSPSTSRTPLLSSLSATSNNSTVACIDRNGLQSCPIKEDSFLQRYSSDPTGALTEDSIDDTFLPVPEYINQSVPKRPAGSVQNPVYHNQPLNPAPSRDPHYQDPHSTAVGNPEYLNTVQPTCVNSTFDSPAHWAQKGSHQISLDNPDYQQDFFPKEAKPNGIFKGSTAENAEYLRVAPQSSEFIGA
Quantity Measured: pIC50

>>> print(df.to_string())
                                   compound  assay_value
0  Cn1c(=O)c(C(=O)NNC(=O)CC(=O)c2ccccc2)nc2ccccc21         6.22
1  Cn1c(=O)c(C(=O)N/N=C2\C(=O)Nc3ccccc32)nc2ccccc21         6.52
2  Cn1c(=O)c(C(=O)NNC(=S)Nc2ccccc2)nc2ccccc21         6.40
3  C/C(=N\NC(=O)c1nc2ccccc2n(C)c1=O)c1cc2ccccc2oc1=O         6.05

###

Tested on: HepG2 cancer cell line
Assay: MTT assay, anticancer activity against HepG2
Format: cell-based
Conditions: Homo sapiens, HepG2, read-out: Cell growth inhibition (GI%)
Quantity Measured: inhibition at 10 µM (%)

>>> df
                                   molecule  unit_of_measure  assay_value
0  Cn1c(=O)c(C(=O)NNC(=S)Nc2ccccc2)nc2ccccc21                %         96.8
1  CC(=O)C/C(=N/NC(=O)c1nc2ccccc2n(C)c1=O)c1ccccc1                %         96.8
2             Cn1c(=O)c(-c2nnco2)nc2ccccc21                %         25.7
3  C/C(=N\NC(=O)c1nc2ccccc2n(C)c1=O)c1cc2ccccc2oc1=O                %         90.8
4  Cn1c(=O)c(C(=O)N/N=C/C(O)C(O)C(O)C(O)CO)nc2ccccc21 (centres unmarked)                %         26.4

###

Tested on: HepG2 cancer cell line
Test: MTT assay, anticancer activity against HepG2
Format: cell-based
Conditions: Homo sapiens, HepG2, read-out: Cell growth inhibition (GI%)
Quantity Measured: inhibition at 10 µM (%)

In [3]: df
Out[3]:
                                   molecule    quantity_measured  assay_value
0  CN1c2ccccc2N=C(C(=O)NN)C1N=N (centres unmarked) [Compound 10]  inhibition at 10 µM         52.4
1  Cn1c(=O)c(C(=O)N/N=C/c2ccc(Cl)cc2)nc2ccccc21 [Compound 2b]  inhibition at 10 µM         90.8
2  Cn1c(=O)c(C(=O)NN=Cc2ccc(O)cc2)nc2ccccc21 [Compound 2c]  inhibition at 10 µM           78
3  Cc1cc(C)n(C(=O)c2nc3ccccc3n(C)c2=O)n1 [Compound 12]  inhibition at 10 µM         53.8
4  Cn1c(=O)c(C(=O)N/N=C/c2ccc3c(c2)OCO3)nc2ccccc21 [Compound 2d]  inhibition at 10 µM           57
